# reported protein stability index; entries follow
- experiment_summary: protein stability index of a GFP-peptide fusion (yeast GPS) (PSI 1-4); higher = more stable; sorted into four equal gates, so the index is relative within each strain
- measurement_parameters: doa10∆
Note: the reply should be a number with no unit written.

The cases that follow already have their protein stability index on record.
DTAVKTAETGYIQRRLV [RPO21]; 1.75
SKASMQKEQNVNNRDSE [YCS4]; 2.78
ADVKGVCTEAGMYALRE [RPT6]; 1.82
QQLLPAPQLFPYGSFHQ [DSN1]; 2.72
KLTDEQSSLDVAGLEDK [SIR3]; 2.68

API: the following record is the query input.
stdin: Need protein stability index of TFTFTAHMGVLLVLLQD [SWP82] , thanks.
stdout: 1.71
